# study system: CDK2 cyA (Homo sapiens, UniProt P24941)
# assay overview: CDK2 cyA IMAP
# Assay type: biochemical
# stated conditions: Table 2; read-out: CDK2cyA IMAP/ IC50
measure: IC50

A selection of reference data follows.
[[record]]
molecule = "CC(C)c1n[nH]cc1-c1ccnc(N[C@@H]2CCCc3ccccc32)n1"
test_value = "< 0.5 µM"

[[record]]
molecule = "CC(C)c1n[nH]cc1-c1ccnc(NC2CCc3ccccc32)n1 (stereo not drawn)"
test_value = "< 1 µM"

[[record]]
molecule = "CCCCNc1nccc(-c2c[nH]nc2C)n1"
test_value = "< 10 µM"

[[record]]
molecule = "CC(C)c1n[nH]cc1-c1ccnc(NCCN(C(C)C)C(C)C)n1"
test_value = "≥ 15 µM"

[[record]]
molecule = "CC(CCCC(C)(C)O)Nc1nccc(-c2c[nH]nc2C(C)C)n1 (stereo not drawn)"
test_value = "< 5 µM"


In the following, a different molecule is considered.
stdin: // IC50 lookup, key: Cc1n[nH]cc1-c1ccnc(NCC2CCCCCC2)n1
stdout: < 15 µM

###

# study system: CDK2 cyA (Homo sapiens)
# assay overview: CDK2 cyA IMAP
# Format: biochemical
# stated conditions: Table 2; read-out: CDK2cyA IMAP/ IC50
Measured IC50 accompanies every entry in the list below.

A selection of reference data follows.
[[record]]
compound = "Cc1n[nH]cc1-c1ccnc(NCCC#N)n1"
study_system = "CDK2 cyA (Homo sapiens)"
measure = "IC50"
test_value = "< 15 µM"

[[record]]
compound = "Cc1n[nH]cc1-c1ccnc(NC2CC2)n1"
study_system = "CDK2 cyA (Homo sapiens)"
measure = "IC50"
test_value = "< 10 µM"

[[record]]
compound = "Cc1n[nH]cc1-c1ccnc(NCc2ccc(F)cc2)n1"
study_system = "CDK2 cyA (Homo sapiens)"
measure = "IC50"
test_value = "< 10 µM"

[[record]]
compound = "Cc1cnc(NC2CCN(C)CC2)nc1-c1c[nH]nc1C(C)C"
study_system = "CDK2 cyA (Homo sapiens)"
measure = "IC50"
test_value = "< 5 µM"

[[record]]
compound = "Cc1n[nH]cc1-c1ccnc(NCCN2CCCCC2)n1"
study_system = "CDK2 cyA (Homo sapiens)"
measure = "IC50"
test_value = "≥ 15 µM"


In the following, a different compound is considered.
stdin: // IC50 lookup, key: CC(C)c1n[nH]cc1-c1ccnc(NCc2ccccc2Cl)n1
stdout: < 1 µM

###

# study system: UniProt P11802
# assay overview: CDK4 HTRF
# Format: biochemical
# stated conditions: Table 1; read-out: CDK4 HTRF
Measured IC50 accompanies every entry in the list below.

A selection of reference data follows.
[[record]]
compound = "Cc1ccc(CNc2cc(-c3cn[nH]c3C3CCCC3)ccn2)cc1"
measure = "IC50"
test_value = "< 10 µM"

[[record]]
compound = "CC(C)CNc1cc(-c2cn[nH]c2C2CCCC2)ccn1"
measure = "IC50"
test_value = "< 0.5 µM"

[[record]]
compound = "CC(C)c1[nH]ncc1-c1ccnc(NCC2CCCCCC2)c1"
measure = "IC50"
test_value = "< 5 µM"


stdin: // IC50 lookup, key: CC(C)c1[nH]ncc1-c1ccnc(NC2CCc3ccccc32)c1 (stereo not shown)
stdout: < 0.5 µM

stdin: // IC50 lookup, key: CC(C)c1[nH]ncc1-c1ccnc(NCc2ccc3c(c2)OCO3)c1
stdout: < 5 µM

###

# study system: CDK2 cyA (Homo sapiens, UniProt P24941)
# assay overview: CDK2 cyA IMAP
# Type: biochemical
# stated conditions: Table 1; read-out: CDK2 cyA IMAP
pIC50: −log10 of the molar value.
Measured pIC50 accompanies every entry in the list below.

A selection of reference data follows.
[[record]]
compound = "CCC(CC)c1[nH]ncc1-c1ccnc(NC2CCc3ccccc32)c1 (stereo not shown)"
test_value = "> 5.30"

[[record]]
compound = "Cc1ccccc1CNc1cc(-c2cn[nH]c2C2CCCCCC2)ccn1"
test_value = "> 5.00"

[[record]]
compound = "CC(C)CNc1cc(-c2cn[nH]c2C2CCCC2)ccn1"
test_value = "> 6.00"

[[record]]
compound = "CC(C)c1[nH]ncc1-c1ccnc(NCC2CCCCCC2)c1"
test_value = "> 5.30"

[[record]]
compound = "CC(C)c1[nH]ncc1-c1ccnc(NCCCn2ccnc2)c1"
test_value = "> 6.00"

[[record]]
compound = "c1cncc(CCNc2cc(-c3cn[nH]c3C3CCCC3)ccn2)c1"
test_value = "> 5.30"


stdin: // pIC50 lookup, key: CCC(CC)c1[nH]ncc1-c1ccnc(NC2CCN(C(=O)OC(C)(C)C)CC2)c1
stdout: > 5.30

stdin: // pIC50 lookup, key: CCCNc1cc(-c2cn[nH]c2C(C)C)ccn1
stdout: > 5.30

stdin: // pIC50 lookup, key: c1cc(-c2cn[nH]c2C2CCCC2)cc(NCCN2CCCCC2)n1
stdout: ≤ 4.82

stdin: // pIC50 lookup, key: CC(C)c1[nH]ncc1-c1ccnc(NC2CCN(C)CC2)c1
stdout: > 4.82

###

Measured pIC50 accompanies every entry in the list below.
# study system: CDK4 (Homo sapiens, UniProt P11802)
# Sequence (P11802 whole entry): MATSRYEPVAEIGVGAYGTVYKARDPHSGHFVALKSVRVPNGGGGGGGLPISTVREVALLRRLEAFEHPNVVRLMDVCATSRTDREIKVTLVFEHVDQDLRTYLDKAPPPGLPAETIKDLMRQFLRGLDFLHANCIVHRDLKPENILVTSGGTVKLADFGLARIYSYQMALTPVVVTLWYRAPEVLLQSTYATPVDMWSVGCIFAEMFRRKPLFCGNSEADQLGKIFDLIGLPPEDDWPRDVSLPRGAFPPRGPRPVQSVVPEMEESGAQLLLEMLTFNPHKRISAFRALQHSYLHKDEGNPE
# Sequence (P24385 whole entry partner): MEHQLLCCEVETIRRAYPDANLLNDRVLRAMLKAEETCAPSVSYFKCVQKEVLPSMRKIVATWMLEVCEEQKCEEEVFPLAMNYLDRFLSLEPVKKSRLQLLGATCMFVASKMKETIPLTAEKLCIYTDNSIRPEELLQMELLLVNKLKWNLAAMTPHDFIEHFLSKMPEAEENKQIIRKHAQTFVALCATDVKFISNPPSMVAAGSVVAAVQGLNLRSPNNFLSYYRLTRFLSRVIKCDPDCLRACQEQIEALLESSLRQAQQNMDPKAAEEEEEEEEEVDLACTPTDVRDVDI
# assay overview: CDK4 HTRF
# Type: biochemical
# stated conditions: Table 2; read-out: CDK4 HTRF/ IC50
pIC50: −log10 of the molar value.

A selection of reference data follows.
[[record]]
molecule = "CC(C)c1n[nH]cc1-c1ccnc(NCc2ccccc2F)n1"
test_value = "> 6.00"

[[record]]
molecule = "Cc1n[nH]cc1-c1ccnc(NC2CCCCC2)n1"
test_value = "> 6.00"

[[record]]
molecule = "Cc1n[nH]cc1-c1ccnc(NCC2CC2)n1"
test_value = "> 5.30"

[[record]]
molecule = "Cc1n[nH]cc1-c1ccnc(NCCC#N)n1"
test_value = "> 5.30"

[[record]]
molecule = "Cc1n[nH]cc1-c1ccnc(NCc2cccc(C(F)(F)F)c2)n1"
test_value = "> 5.30"

[[record]]
molecule = "CC(C)c1n[nH]cc1-c1ccnc(NCc2ccccc2OC(F)(F)F)n1"
test_value = "> 4.82"

[[record]]
molecule = "Cc1n[nH]cc1-c1ccnc(NCCc2c[nH]c3ccccc23)n1"
test_value = "> 5.30"

[[record]]
molecule = "Cc1n[nH]cc1-c1ccnc(NCCCN2CCCC2)n1"
test_value = "> 4.82"


stdin: // pIC50 lookup, key: CCC(Nc1nccc(-c2c[nH]nc2C(C)C)n1)c1ccccc1 (centres unmarked)
stdout: > 6.30

###

Measured IC50 accompanies every entry in the list below.
# study system: hCDK1/B (Homo sapiens, UniProt P06493)
# Sequence (P06493 whole entry): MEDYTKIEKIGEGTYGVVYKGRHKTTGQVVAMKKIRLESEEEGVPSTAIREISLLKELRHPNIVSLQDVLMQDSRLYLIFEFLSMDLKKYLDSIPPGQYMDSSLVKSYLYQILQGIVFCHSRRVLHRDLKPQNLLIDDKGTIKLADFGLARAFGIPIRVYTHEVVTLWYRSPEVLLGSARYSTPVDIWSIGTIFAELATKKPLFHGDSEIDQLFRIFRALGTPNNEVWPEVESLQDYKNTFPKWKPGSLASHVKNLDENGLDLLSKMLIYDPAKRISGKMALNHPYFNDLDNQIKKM
# Sequence (P14635 whole entry partner): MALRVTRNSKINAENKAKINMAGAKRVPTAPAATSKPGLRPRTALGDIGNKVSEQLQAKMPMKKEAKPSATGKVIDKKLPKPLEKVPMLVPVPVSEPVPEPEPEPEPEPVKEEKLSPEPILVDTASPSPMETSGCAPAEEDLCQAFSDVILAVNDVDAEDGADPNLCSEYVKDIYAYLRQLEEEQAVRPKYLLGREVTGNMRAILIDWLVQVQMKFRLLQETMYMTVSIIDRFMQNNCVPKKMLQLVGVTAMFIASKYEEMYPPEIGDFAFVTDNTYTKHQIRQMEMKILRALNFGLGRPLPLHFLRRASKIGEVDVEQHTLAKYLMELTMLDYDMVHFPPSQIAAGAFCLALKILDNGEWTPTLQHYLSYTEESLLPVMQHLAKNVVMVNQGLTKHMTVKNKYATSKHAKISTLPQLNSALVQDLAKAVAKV
# assay overview: hCDK1/B
# Format: biochemical
# stated conditions: Table 2

A selection of reference data follows.
[[record]]
compound = "CC(C)c1n[nH]cc1-c1ccnc(N[C@H](C)c2ccccn2)n1"
test_value = "< 5 µM"

[[record]]
compound = "Cc1n[nH]cc1-c1ccnc(NCCCN2CCCC2)n1"
test_value = "≥ 15 µM"

[[record]]
compound = "CC(C)c1n[nH]cc1-c1ccnc(NCCCN(C)C)n1"
test_value = "< 5 µM"


stdin: // IC50 lookup, key: Cc1n[nH]cc1-c1ccnc(NCc2ccncc2)n1
stdout: < 15 µM

stdin: // IC50 lookup, key: CC(C)c1n[nH]cc1-c1nc(NC2CCN(C)CC2)ncc1Br
stdout: < 5 µM

###

# study system: CDK2 cyA (Homo sapiens, UniProt P24941)
# assay overview: CDK2 cyA IMAP
# Assay type: biochemical
# stated conditions: Table 1; read-out: CDK2 cyA IMAP
Measured IC50 accompanies every entry in the list below.

A selection of reference data follows.
[[record]]
chem_smiles = "CC(C)c1[nH]ncc1-c1ccnc(NC2CCCCCC2)c1"
measure = "IC50"
test_value = "< 0.5 µM"

[[record]]
chem_smiles = "COc1ccc(CNc2cc(-c3cn[nH]c3C(C)C)ccn2)cc1"
measure = "IC50"
test_value = "< 5 µM"


stdin: // IC50 lookup, key: CC(C)c1[nH]ncc1-c1ccnc(NCCCCN2CCCC2)c1
stdout: ≥ 15 µM

###

# study system: hCDK1/B (Homo sapiens)
# assay overview: hCDK1/B
# Assay type: biochemical
# stated conditions: Table 1
pIC50: −log10 of the molar value.
Measured pIC50 accompanies every entry in the list below.

A selection of reference data follows.
[[record]]
compound = "CC(C)c1[nH]ncc1-c1ccnc(NCC2CCCO2)c1 (stereo not drawn) [Example 13]"
test_value = "> 5.30"

[[record]]
compound = "CN1CCC(Nc2cc(-c3cn[nH]c3C3CCCC3)ccn2)CC1 [Example 79]"
test_value = "> 5.00"

[[record]]
compound = "c1cc(-c2cn[nH]c2C2CCCC2)cc(NCCN2CCCCC2)n1 [Example 61]"
test_value = "≤ 4.82"

[[record]]
compound = "c1cc(-c2cn[nH]c2C2CCCC2)cc(NC2CCCC2)n1 [Example 3]"
test_value = "> 6.00"

[[record]]
compound = "CCC(C)c1[nH]ncc1-c1ccnc(NC2CCc3ccccc32)c1 (stereo not drawn) [Example 82]"
test_value = "> 5.30"


stdin: // pIC50 lookup, key: c1cc(-c2cn[nH]c2C2CCCC2)cc(NC2CC2)n1 [Example 53]
stdout: > 5.30

stdin: // pIC50 lookup, key: CC(C)c1[nH]ncc1-c1ccnc(NCc2cccc(C(F)(F)F)c2)c1 [Example 25]
stdout: > 5.30

stdin: // pIC50 lookup, key: CC(C)c1[nH]ncc1-c1ccnc(NCCCN2CCOCC2)c1 [Example 36]
stdout: ≤ 4.82

stdin: // pIC50 lookup, key: CC(C)c1[nH]ncc1-c1ccnc(NCCCNC2CCCCC2)c1 [Example 51]
stdout: ≤ 4.82

stdin: // pIC50 lookup, key: CC(C)(C)c1[nH]ncc1-c1ccnc(NC2CCc3ccccc32)c1 (stereo not drawn) [Example 75]
stdout: ≤ 4.82

stdin: // pIC50 lookup, key: CC(C)c1[nH]ncc1-c1ccnc(NC2CC2)c1 [Example 39]
stdout: > 5.30

stdin: // pIC50 lookup, key: COc1ccc(CNc2cc(-c3cn[nH]c3C(C)C)ccn2)cc1 [Example 34]
stdout: > 5.30

stdin: // pIC50 lookup, key: CC(C)c1[nH]ncc1-c1ccnc(NCCCN2CCCC2)c1 [Example 19]
stdout: ≤ 4.82
